So I've got a bunch of molecules here, and I need their Pigweed, Palmer plant response rating values.
test system: palmer (palmer amaranth, palmer pigweed, Amaranthus palmeri); assay: Test A preemergence soil spray, visual injury rating 0-100; assay type: in vivo; conditions: 16 g ai/ha, 0 to 100 scale, 10 days

Answered examples (5):
Molecule	Target of assay	Observable	Observed result
CC1(C(=O)NC2C=CC(C(=O)O)C2)CN(c2cc(Cl)c(F)c(Cl)c2)C(=O)O1 (stereo not drawn)	palmer (palmer amaranth, palmer pigweed, Amaranthus palmeri)	Pigweed, Palmer plant response rating	0
C=CC1(C(=O)NC2COC(C(=O)OC)C2)CN(c2cc(F)cc(F)c2)C(=O)O1 (stereo not drawn)	palmer (palmer amaranth, palmer pigweed, Amaranthus palmeri)	Pigweed, Palmer plant response rating	0
CC1(C(=O)NC2CC=C(C(=O)O)C2)CN(c2cc(Cl)cc(Cl)c2)C(=O)O1 (stereo not drawn)	palmer (palmer amaranth, palmer pigweed, Amaranthus palmeri)	Pigweed, Palmer plant response rating	0
CC1(C(=O)NC2CC=C(C(=O)O)C2)CN(c2cc(F)cc(Cl)c2)C(=O)O1 (stereo not drawn)	palmer (palmer amaranth, palmer pigweed, Amaranthus palmeri)	Pigweed, Palmer plant response rating	0
CC1(C(=O)NC2C=CC(C(=O)O)C2)CN(c2cc(F)c(F)c(F)c2)C(=O)O1 (stereo not drawn)	palmer (palmer amaranth, palmer pigweed, Amaranthus palmeri)	Pigweed, Palmer plant response rating	0

For each of the items listed, what is its Pigweed, Palmer plant response rating?
1. COC(=O)C1C=CC(NC(=O)C2(C)CN(c3cc(F)cc(F)c3)C(=O)O2)C1 (stereo not drawn)
2. CC1(C(=O)NC2C=CC(C(=O)O)C2)CN(c2cc(F)cc(F)c2)C(=O)O1 (stereo not drawn)

[80, 30]

For each of the items listed, what is its Pigweed, Palmer plant response rating?
1. COC(=O)C1=CCC(NC(=O)C2(C)CN(c3cc(F)c(F)c(F)c3)C(=O)O2)C1 (mixture of isomers)
2. C=CC1(C(=O)NC2C=CC(C(=O)O)C2)CN(c2cc(F)cc(F)c2)C(=O)O1 (mixture of isomers)

1: 0; 2: 20
